- Tested on: A498 renal
- experimentDescription: NCI tumour cell line growth inhibition, 48 h
reportedMetric: TGI (µM)

>>> endpointvalue("C[C@]12CC[C@H]3[C@@H](CCC4=C[C@@H](OC5OCC(OC6OC(CO)C(O)C(O)C6O)C(O)C5O)CC[C@@]43C=O)[C@@]1(O)CCC2C1=CC(=O)OC1 (stereo not given in full)")
2.99
>>> endpointvalue("O=C(Nc1ccc(-c2ccnc(Nc3ccc(N4CCOCC4)cc3)n2)cc1)C1CCCN1 (stereo not given)")
17.9

====

- Tested on: NCI-H522 lung
- experimentDescription: NCI tumour cell line growth inhibition, 48 h; in the data active means GI50 below about 0.43 µM; inactive means the rest
Possible outcomes: YES (active), NO (inactive)

>>> cat("COc1cc(CNC(=O)CCSc2nc3ccccc3c(=O)n2Cc2cc(OC)c(OC)c(OC)c2)cc(OC)c1OC")
"NO"
>>> cat("O=S1(=O)CC(Br)C(Br)C1 (stereo not given)")
"NO"
>>> cat("CCN(CC)CCOc1nc2cc(OC)c(OC)cc2c2c1-c1ccc(OC)cc1C2=O")
"YES"
>>> cat("Cc1[nH]n(-c2ccccc2)c(=O)c1C(=O)c1ccccc1")
"NO"
>>> cat("O=C(Nc1ccc(-c2ccnc(Nc3ccc(N4CCOCC4)cc3)n2)cc1)C1CCCN1 (stereo not given)")
"NO"
>>> cat("Cc1cc(S(=O)(=O)Nc2nc3cc(-c4ccsc4)sc3c(=O)n2N)c(S)cc1Cl")
"NO"
>>> cat("O=C(O)c1cc2c(c3ccsc13)-c1ccccc1CC2")
"NO"
>>> cat("FC(F)(F)c1cc(NC2=NCCN=C(Nc3cc(C(F)(F)F)cc(C(F)(F)F)c3)SS2)cc(C(F)(F)F)c1")
"NO"
>>> cat("CC(C)=CCC/C(C)=C/[C@H]1OC(=O)CC12C[C@H](O)C=CC2=O (stereo not given in full)")
"NO"
>>> cat("COc1cc(/C=C/c2cc(/C=C/c3ccc(O)c(OC)c3)[nH]c(=O)n2)ccc1O")
"NO"

====

- System: SK-MEL-5 melanoma
- experimentDescription: NCI tumour cell line growth inhibition, 48 h
We begin with a simple list: items and their reported TGI.
reportedMetric: TGI

>>> endpointvalue("CC(C)(F)C[C@H](N[C@@H](c1ccc(-c2ccc(S(C)(=O)=O)cc2)cc1)C(F)(F)F)C(=O)NC1(C#N)CC1")
"> 100 µM"
>>> endpointvalue("O=c1oc2cc(OS(=O)(=O)c3ccccc3)ccc2c2c1CCCCC2")
"> 100 µM"
>>> endpointvalue("CC(C)N(Cc1ccccc1)S(=O)(=O)c1n[nH]c(C(C)(C)C)n1")
"> 100 µM"
>>> endpointvalue("O=C(Nc1cccc([N+](=O)[O-])c1)c1cc2ccccc2cc1O")
"3.56 µM"
>>> endpointvalue("CCC1CCC2c3c([nH]c4ccccc34)C3C(=O)N(c4ccc(OC)cc4)C(=O)C3C2C1 (stereo not given)")
"> 100 µM"

====

- Tested on: ACHN renal
- experimentDescription: NCI tumour cell line growth inhibition, 48 h
We begin with a simple list: items and their reported TGI.
reportedMetric: TGI

>>> endpointvalue("S=C(Nc1ccc2c(c1)Cc1ccccc1-2)Nc1ccc2c(c1)Cc1ccccc1-2")
"> 100 µM"
>>> endpointvalue("O=C(NC/C=C/Br)NC1CCNc2ccccc21 (centres undefined)")
"> 100 µM"
>>> endpointvalue("N#Cc1ccc2c(c1)C(=O)c1c-2n(CCCN=[N+]=[N-])c(=O)c2cc([N+](=O)[O-])ccc12")
"> 50 µM"
>>> endpointvalue("COc1ccc(N2C(=O)C(N3C(=O)C=CC3=O)C2C=O)cc1 (centres undefined)")
"> 100 µM"
>>> endpointvalue("CC[C@H](C)[C@H](NC(=O)c1nccn1C)C(=O)N(C)[C@H](C[C@@H](OC(C)=O)c1nc(C(=O)N[C@@H](Cc2ccccc2)C[C@H](C)C(=O)OC)cs1)C(C)C")
"> 33.3 µM"
>>> endpointvalue("CCC1CCC2c3c([nH]c4ccccc34)C3C(=O)N(c4ccc(OC)cc4)C(=O)C3C2C1 (centres undefined)")
"> 100 µM"
>>> endpointvalue("CC(C)(F)C[C@H](N[C@@H](c1ccc(-c2ccc(S(C)(=O)=O)cc2)cc1)C(F)(F)F)C(=O)NC1(C#N)CC1")
"> 100 µM"
>>> endpointvalue("Cc1ccc(C)c2c1CCc1cc3ccccc3nc1-2")
"> 100 µM"
>>> endpointvalue("CC1(C)CC2(C)OC(=N)C1(C#N)C2(C#N)C#N (centres undefined)")
"20.3 µM"
>>> endpointvalue("N#Cc1ncc(N2C(=O)C3(CCC3)N(c3ccc(OC4CCNCC4)nc3)C2=S)cc1C(F)(F)F")
"32 µM"
>>> endpointvalue("Cc1cc(Cl)ccc1NC(=O)NC(C)(C)COC(=O)Nc1cccc(Cl)c1")
"> 100 µM"
>>> endpointvalue("COc1ccc(C2NC(=O)Nc3c2c(=O)oc2c3ccc3ccccc32)cc1 (centres undefined)")
"> 100 µM"
>>> endpointvalue("CC(=O)Nc1ccc(/C=C(\\NC(=O)c2ccccc2)C(=O)NNS(=O)(=O)c2ccc(C)cc2)cc1")
"> 100 µM"
>>> endpointvalue("CCOC(=O)/C(C#N)=C(N)/C(=N\\Nc1cccc(C(F)(F)F)c1)C(=O)OCC")
"> 100 µM"
>>> endpointvalue("CN(C)c1ccc(N=C(C#N)c2nc(N)nc(N3CCN(c4ccccc4)CC3)n2)cc1")
"> 50 µM"
>>> endpointvalue("CC(=O)Nc1cc2cc(NS(=O)(=O)c3cc(C(F)(F)F)cc(C(F)(F)F)c3)ccc2oc1=O")
"> 100 µM"
>>> endpointvalue("C=C(C(=O)OC)[C@H]1CC/C(C)=C/CC/C(C)=C/CC[C@@]2(C)O[C@@H]2C1")
"34.5 µM"
>>> endpointvalue("Oc1ccc2ccccc2c1OCc1nnc(CCCCCCCCc2nnc(COc3c(O)ccc4ccccc34)o2)o1")
"> 100 µM"
>>> endpointvalue("COc1ccccc1N1C(=O)/C(=C\\c2cccc(Oc3ccccc3)c2)S(=O)(=O)C1c1ccccc1 (centres undefined)")
"> 100 µM"

Each recorded value in this set is attributed to PubChem BioAssay (NCI).
